# system: RAC-alpha serine/threonine-protein kinase (Homo sapiens) (UniProt P31749);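 note: reported values are mean inhibition figures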
# Sequence (P31749 whole entry): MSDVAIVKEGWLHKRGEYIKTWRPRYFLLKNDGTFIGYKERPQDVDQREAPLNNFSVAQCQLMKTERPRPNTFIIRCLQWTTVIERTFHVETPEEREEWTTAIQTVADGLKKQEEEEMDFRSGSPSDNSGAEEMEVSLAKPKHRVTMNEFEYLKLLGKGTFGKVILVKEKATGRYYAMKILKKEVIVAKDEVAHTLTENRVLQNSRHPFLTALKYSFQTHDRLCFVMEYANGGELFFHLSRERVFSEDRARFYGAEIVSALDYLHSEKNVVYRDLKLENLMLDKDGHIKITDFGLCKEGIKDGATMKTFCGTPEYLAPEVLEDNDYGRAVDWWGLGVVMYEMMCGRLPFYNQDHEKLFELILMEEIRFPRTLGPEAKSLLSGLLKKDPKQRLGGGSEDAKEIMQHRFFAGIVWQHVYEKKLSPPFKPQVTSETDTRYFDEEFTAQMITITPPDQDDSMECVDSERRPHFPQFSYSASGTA
# test_parameters: at 0.1 µM
experimental_readout: inhibition (%)
Give bare numbers, in %.

smiles_structure=CCN(CC)Cc1ccc(Nc2nccc(-c3cnn4ncccc34)n2)cc1 system="RAC-alpha serine/threonine-protein kinase (Homo sapiens) (UniProt P31749)" experimental_readout=inhibition observed=-2.02

Quick batch: inhibition for everything below.
1. COc1cc(Nc2ncc3c(C)nc(-c4cccc(Oc5ccccc5)c4)n3n2)cc(OC)c1OC
2. COc1cc(Nc2ncc3c(C)nc(-c4cccc(C(F)(F)F)c4)n3n2)cc(OC)c1OC
3. COc1cc(C)c(N(C)C(=O)CN(C)C)cc1Nc1nc(Nc2cccc(F)c2C(N)=O)c2cc[nH]c2n1
4. NC(=O)c1cc(-c2ccncc2)cc(-c2ccccc2)c1N
5. CCS(=O)(=O)c1ccc(OC)c(Nc2ncc(-c3ccccc3Cl)o2)c1

Outgoing:
1. 0.97
2. 0.55
3. -1.91
4. 0.73
5. 0.85
